Test Details: Metabolic stability in dog liver microsomes
Format: in vitro ADME
Assay Conditions: pH 7.4; male dog liver microsomes, normal; read-out: Predicted CL int, iv vivo
Observed Property: CLint scaled at 1 µM (mL/min/kg)
Respond with the bare value in mL/min/kg.

# lookup: CLint scaled at 1 µM of C[C@H](Nc1ncnc(N)c1C#N)c1cc2ncc(Cl)n2nc1-c1ccccc1
20.7

====

Target Or Test System: P-gp (Homo sapiens)
Sequence (P08183 whole entry): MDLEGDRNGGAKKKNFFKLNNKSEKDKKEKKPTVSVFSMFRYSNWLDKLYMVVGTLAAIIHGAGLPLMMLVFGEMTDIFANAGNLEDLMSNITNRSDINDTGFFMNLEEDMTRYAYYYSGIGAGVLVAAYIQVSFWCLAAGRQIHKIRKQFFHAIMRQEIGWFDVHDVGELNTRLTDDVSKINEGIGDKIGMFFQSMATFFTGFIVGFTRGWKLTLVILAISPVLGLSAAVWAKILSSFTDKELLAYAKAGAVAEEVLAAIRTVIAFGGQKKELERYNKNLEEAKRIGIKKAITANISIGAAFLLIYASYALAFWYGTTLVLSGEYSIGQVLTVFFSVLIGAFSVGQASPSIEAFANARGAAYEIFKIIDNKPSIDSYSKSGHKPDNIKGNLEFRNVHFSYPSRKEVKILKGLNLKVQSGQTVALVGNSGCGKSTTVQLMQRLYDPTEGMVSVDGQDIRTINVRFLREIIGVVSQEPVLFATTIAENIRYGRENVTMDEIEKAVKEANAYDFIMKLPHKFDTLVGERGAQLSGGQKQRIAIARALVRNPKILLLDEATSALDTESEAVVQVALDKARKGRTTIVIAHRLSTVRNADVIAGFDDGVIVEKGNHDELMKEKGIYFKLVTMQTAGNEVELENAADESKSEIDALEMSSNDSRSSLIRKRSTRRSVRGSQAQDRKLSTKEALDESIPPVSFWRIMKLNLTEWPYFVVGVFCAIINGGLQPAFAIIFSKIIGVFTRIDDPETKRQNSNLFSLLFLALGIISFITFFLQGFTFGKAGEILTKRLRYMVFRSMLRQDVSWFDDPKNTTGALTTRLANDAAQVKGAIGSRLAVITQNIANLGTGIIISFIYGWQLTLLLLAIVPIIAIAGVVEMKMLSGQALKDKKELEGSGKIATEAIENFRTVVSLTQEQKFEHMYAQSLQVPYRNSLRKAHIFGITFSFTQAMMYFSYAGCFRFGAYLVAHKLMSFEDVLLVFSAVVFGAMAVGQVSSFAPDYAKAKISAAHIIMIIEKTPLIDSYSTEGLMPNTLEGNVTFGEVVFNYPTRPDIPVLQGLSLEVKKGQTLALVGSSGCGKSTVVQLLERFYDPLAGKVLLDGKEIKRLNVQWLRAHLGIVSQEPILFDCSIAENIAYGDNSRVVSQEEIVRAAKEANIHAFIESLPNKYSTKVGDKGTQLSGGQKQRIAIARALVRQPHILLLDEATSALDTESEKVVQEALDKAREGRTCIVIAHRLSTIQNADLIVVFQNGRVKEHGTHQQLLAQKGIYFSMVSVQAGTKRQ
Test Details: in vitro
Assay Conditions: human
Observed Property: inhibition at 60 min, 60 µM (%)
State just the number; it will be interpreted in %.

Which inhibition at 60 min, 60 µM value belongs to C[C@H](Nc1ncnc(N)c1C#N)c1cc2ncc(Cl)n2nc1-c1ccccc1 [Amdizalisib] ?
75.9

====

Test system: CYP2C9 mRNA
Test Details: CYP induction in human hepatocytes, CYP2C9 mRNA (RT-PCR)
Assay Conditions: female, human
Observed Property: fold induction at 48 h, 25 µM
// no unit, no text: just the number

# fold induction at 48 h, 25 µM lookup, item CCOC(=O)c1ncn2c1CN(C)C(=O)c1cc(F)ccc1-2
1.83

====

Test Details: Single-dose PK in SD rats (IV/PO)
Design: species or system SD rat
Assay Conditions: both sexes, SD, rat, in vivo, iv, 5 mg/kg
Observed Property: MRT (h)
Quick note: give the figure in h, leave out the unit.

Query: MRT; subject: C[C@H](Nc1ncnc(N)c1C#N)c1cc2ncc(Cl)n2nc1-c1ccccc1 [Amdizalisib]
4.6

====

Test system: CYP1A2 mRNA
Test Details: in vitro
Assay Conditions: male, human, Gene expression Fold Induction
Observed Property: fold induction at 48 h, 50 µM
// no unit string in output, number only

What does the record list as fold induction at 48 h, 50 µM for COc1ccc2[nH]c([S+]([O-])Cc3ncc(C)c(OC)c3C)nc2c1 (stereo not shown) ?
20.3

====

Test system: CYP1A2
Test Details: in vitro
Assay Conditions: male, human, Enzyme activity Fold Induction
Observed Property: fold induction at 48 h, 50 µM

Item COc1ccc2[nH]c([S+]([O-])Cc3ncc(C)c(OC)c3C)nc2c1 (stereo not shown) has what recorded fold induction at 48 h, 50 µM?
5.22

====

Test Details: Caco-2 bidirectional transport permeability
Type: in vitro ADME, human
Assay Conditions: human
Observed Property: Papp A→B at 60 min, 40 µM (nm/s)
API: value field is a number in nm/s; no unit string.

Fill in: Papp A→B at 60 min, 40 µM of C[C@H](Nc1ncnc(N)c1C#N)c1cc2ncc(Cl)n2nc1-c1ccccc1 [Amdizalisib] is ___
363

====

System: CYP1A2
Test Details: in vitro
Assay Conditions: female, human, Enzyme activity Fold Induction
Observed Property: fold induction at 48 h, 50 µM
No unit in the answer, please; the number alone is enough.

Quick check: fold induction at 48 h, 50 µM of COc1ccc2[nH]c([S+]([O-])Cc3ncc(C)c(OC)c3C)nc2c1 (stereo not shown) ?
4.95

====

Test Details: Metabolic stability in dog liver microsomes
Format: in vitro ADME
Assay Conditions: pH 7.4; female dog liver microsomes, normal; read-out: Predicted CL int, iv vivo
Observed Property: CLint scaled at 1 µM

Can you look up the measured CLint scaled at 1 µM of C[C@H](Nc1ncnc(N)c1C#N)c1cc2ncc(Cl)n2nc1-c1ccccc1 [Amdizalisib] for me?
48.1 mL/min/kg

====

Target Or Test System: BCRP (Homo sapiens, UniProt Q9UNQ0)
Sequence (Q9UNQ0 whole entry): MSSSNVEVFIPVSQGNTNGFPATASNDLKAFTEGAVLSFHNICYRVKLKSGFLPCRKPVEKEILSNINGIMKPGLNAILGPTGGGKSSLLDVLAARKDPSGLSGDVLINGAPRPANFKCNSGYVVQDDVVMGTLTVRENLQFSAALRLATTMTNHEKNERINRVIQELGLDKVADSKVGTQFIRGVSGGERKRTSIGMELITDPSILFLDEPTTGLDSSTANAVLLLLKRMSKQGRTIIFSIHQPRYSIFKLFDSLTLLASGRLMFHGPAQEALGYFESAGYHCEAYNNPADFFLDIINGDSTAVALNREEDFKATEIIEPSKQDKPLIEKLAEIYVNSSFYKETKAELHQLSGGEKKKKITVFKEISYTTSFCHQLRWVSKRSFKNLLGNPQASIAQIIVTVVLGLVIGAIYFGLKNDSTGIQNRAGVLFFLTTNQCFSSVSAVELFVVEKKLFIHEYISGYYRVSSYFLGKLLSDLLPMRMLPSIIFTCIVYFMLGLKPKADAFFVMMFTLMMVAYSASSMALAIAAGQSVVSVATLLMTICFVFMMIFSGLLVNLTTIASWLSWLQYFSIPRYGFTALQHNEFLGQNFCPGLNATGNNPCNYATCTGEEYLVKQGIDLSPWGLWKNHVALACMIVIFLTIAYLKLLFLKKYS
Test Details: in vitro
Assay Conditions: human
Observed Property: inhibition at 60 min, 60 µM (%)
Kindly provide the numeric value in % only, without the unit symbol.

GET /values?readout=inhibition at 60 min, 60 µM&system=BCRP (Homo sapiens, UniProt Q9UNQ0)&item= C[C@H](Nc1ncnc(N)c1C#N)c1cc2ncc(Cl)n2nc1-c1ccccc1
66.4

====

Target Or Test System: MATE2-K (Homo sapiens)
Sequence (Q86VL8 1-566 isoform Q86VL8-3): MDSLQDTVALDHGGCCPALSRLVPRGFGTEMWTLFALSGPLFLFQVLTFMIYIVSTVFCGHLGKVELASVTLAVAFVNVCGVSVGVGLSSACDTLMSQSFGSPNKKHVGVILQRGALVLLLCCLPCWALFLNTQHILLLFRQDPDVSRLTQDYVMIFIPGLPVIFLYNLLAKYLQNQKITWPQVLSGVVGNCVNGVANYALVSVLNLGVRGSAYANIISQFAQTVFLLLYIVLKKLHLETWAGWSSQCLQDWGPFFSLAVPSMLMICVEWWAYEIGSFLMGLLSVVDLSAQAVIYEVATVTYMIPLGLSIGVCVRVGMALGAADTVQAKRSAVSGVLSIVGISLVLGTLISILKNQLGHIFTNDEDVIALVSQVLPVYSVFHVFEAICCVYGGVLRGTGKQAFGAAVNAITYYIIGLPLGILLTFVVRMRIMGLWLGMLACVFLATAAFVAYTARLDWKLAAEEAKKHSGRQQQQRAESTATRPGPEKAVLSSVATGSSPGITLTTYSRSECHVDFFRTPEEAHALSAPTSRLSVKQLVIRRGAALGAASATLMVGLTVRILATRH
Test Details: in vitro
Assay Conditions: human, pH 8
Observed Property: inhibition at 2 min, 10 µM (%)
Could you give me the number in %? Just the number is fine.

If you can, please state the reported inhibition at 2 min, 10 µM value of C[C@H](Nc1ncnc(N)c1C#N)c1cc2ncc(Cl)n2nc1-c1ccccc1 .
10.4

====

Test Details: Caco-2 bidirectional transport permeability
Format: in vitro ADME, human
Assay Conditions: human
Observed Property: Papp B→A at 90 min, 10 µM (×10⁻⁶ cm/s)
Entry rule: numbers only, all in ×10⁻⁶ cm/s.

// returns reported Papp B→A at 90 min, 10 µM for input C[C@H](Nc1ncnc(N)c1C#N)c1cc2ncc(Cl)n2nc1-c1ccccc1
57.1

====

Test Details: Single-dose PK and food effect in beagle dogs (IV/PO)
Parameters: species or system beagle dog
Assay Conditions: both sexes, beagle, dog, in vivo, po, 3.5 mg/kg
Observed Property: AUC(0-t) (ng·h/mL)
The response must be a number in ng·h/mL with no trailing unit.

Recorded AUC(0-t) for C[C@H](Nc1ncnc(N)c1C#N)c1cc2ncc(Cl)n2nc1-c1ccccc1 , please?
5540

====

Test system: CYP2B6 mRNA
Test Details: CYP induction in human hepatocytes, CYP2B6 mRNA (RT-PCR)
Assay Conditions: human five, Gene expression Fold Induction, CYP2B6, donor seven, 1000 µM
Description: […] Enzyme activity for each CYP isoform was reported as a fold change over vehicle control and the percent of positive control (detailed calculation in Supplementary 1.1). Hepatocytes were harvested with a lysis buffer from RNeasy 96 Kit (Qiagen Inc., Germantown, MD, USA) to isolate RNA, which was analyzed by real-time quantitative polymerase chain reaction (RT-PCR). […]
Observed Property: fold induction at 48 h, 1000 µM
Just the number, please.

Give the measured fold induction at 48 h, 1000 µM of CCC1(c2ccccc2)C(=O)NC(=O)NC1=O .
9.45

====

Target Or Test System: MATE1 (Homo sapiens)
Sequence (Q96FL8 whole entry): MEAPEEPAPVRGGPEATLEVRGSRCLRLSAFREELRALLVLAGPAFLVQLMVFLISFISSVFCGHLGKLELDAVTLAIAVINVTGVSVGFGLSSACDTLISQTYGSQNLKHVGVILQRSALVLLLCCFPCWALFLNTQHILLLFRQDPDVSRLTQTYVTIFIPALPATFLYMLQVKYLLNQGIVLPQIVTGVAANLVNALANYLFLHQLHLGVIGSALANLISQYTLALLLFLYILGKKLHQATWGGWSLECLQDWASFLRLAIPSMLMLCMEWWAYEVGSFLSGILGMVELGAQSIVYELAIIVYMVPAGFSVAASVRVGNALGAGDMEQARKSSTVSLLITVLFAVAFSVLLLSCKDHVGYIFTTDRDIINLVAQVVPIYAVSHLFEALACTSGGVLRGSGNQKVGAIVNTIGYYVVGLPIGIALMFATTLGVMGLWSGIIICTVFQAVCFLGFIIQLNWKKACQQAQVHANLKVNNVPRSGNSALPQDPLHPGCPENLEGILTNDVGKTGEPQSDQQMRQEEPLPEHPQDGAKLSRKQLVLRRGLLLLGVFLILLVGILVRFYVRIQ
Test Details: in vitro
Assay Conditions: human, pH 8
Observed Property: inhibition at 2 min, 100 µM (%)
Report the figure in % without appending any unit label.

Checklist item: inhibition at 2 min, 100 µM tested on MATE1 (Homo sapiens), entry C[C@H](Nc1ncnc(N)c1C#N)c1cc2ncc(Cl)n2nc1-c1ccccc1 [Amdizalisib] , value?
76.4

====

Test Details: Single-dose PK and food effect in beagle dogs (IV/PO)
Parameters: species or system beagle dog
Assay Conditions: both sexes, beagle, dog, in vivo, iv, 0.5 mg/kg
Observed Property: Vd
Give your result as the value with the unit written after it.

Find the recorded Vd belonging to C[C@H](Nc1ncnc(N)c1C#N)c1cc2ncc(Cl)n2nc1-c1ccccc1 [Amdizalisib] and report it.
2.4 L/kg

====

Test Details: Caco-2 bidirectional transport permeability
Assay type: in vitro ADME, human
Assay Conditions: human
Observed Property: Papp B→A at 60 min, 80 µM (×10⁻⁶ cm/s)
The reply should be a number in ×10⁻⁶ cm/s, with the unit left off.

Bench note: what Papp B→A at 60 min, 80 µM did C[C@H](Nc1ncnc(N)c1C#N)c1cc2ncc(Cl)n2nc1-c1ccccc1 show?
45.4

====

Test Details: Single-dose PK and food effect in beagle dogs (IV/PO)
Parameters: species or system beagle dog
Assay Conditions: both sexes, beagle, dog, in vivo, po, 25 mg/kg, AUC0-inf
Observed Property: AUC(0-inf)
Write down the value, and be sure its unit follows.

May I ask what AUC(0-inf) has been recorded for C[C@H](Nc1ncnc(N)c1C#N)c1cc2ncc(Cl)n2nc1-c1ccccc1 ?
72800 ng·h/mL

====

Target Or Test System: OCT2 (Homo sapiens)
Sequence (O15244 whole entry): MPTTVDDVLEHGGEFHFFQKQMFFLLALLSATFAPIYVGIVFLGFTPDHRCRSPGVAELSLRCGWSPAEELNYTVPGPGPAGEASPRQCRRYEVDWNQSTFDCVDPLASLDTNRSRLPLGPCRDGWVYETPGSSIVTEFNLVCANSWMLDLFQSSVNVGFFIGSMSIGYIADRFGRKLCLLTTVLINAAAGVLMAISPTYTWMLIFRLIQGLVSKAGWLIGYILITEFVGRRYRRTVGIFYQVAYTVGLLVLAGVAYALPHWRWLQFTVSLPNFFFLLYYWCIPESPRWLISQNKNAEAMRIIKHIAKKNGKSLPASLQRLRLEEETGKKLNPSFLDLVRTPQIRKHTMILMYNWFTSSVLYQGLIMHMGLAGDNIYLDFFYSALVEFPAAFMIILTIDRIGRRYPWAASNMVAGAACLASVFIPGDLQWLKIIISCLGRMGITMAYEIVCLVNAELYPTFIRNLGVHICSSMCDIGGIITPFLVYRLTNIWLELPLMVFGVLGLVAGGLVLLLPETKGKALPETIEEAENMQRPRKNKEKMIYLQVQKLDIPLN
Test Details: in vitro
Assay Conditions: human, pH 7.4
Observed Property: inhibition at 2 min, 1 µM (%)
Only the number, expressed in %, is required.

Dear colleague, I am looking for the recorded inhibition at 2 min, 1 µM of the following molecule: C[C@H](Nc1ncnc(N)c1C#N)c1cc2ncc(Cl)n2nc1-c1ccccc1
6.72

====

Test system: CYP1A2 mRNA
Test Details: in vitro
Assay Conditions: female, human, Gene expression Fold Induction
Observed Property: fold induction at 48 h, 50 µM

# query: fold induction at 48 h, 50 µM of entry COc1ccc2[nH]c([S+]([O-])Cc3ncc(C)c(OC)c3C)nc2c1 (stereo not shown)
15.6

====

Target Or Test System: MATE1 (Homo sapiens)
Test Details: in vitro
Assay Conditions: human, pH 8
Observed Property: inhibition at 2 min, 10 µM
Kindly report the value followed by its unit.

Suppose we examine the compound C[C@H](Nc1ncnc(N)c1C#N)c1cc2ncc(Cl)n2nc1-c1ccccc1 [Amdizalisib] ; what inhibition at 2 min, 10 µM value has been reported?
50.8%

====

Test Details: Metabolic stability in dog liver microsomes
Assay type: in vitro ADME
Assay Conditions: FMO-deactivated liver microsomes, pH 7.4; female dog liver microsomes, FMO deactivation; read-out: Predicted CL int, iv vivo
Observed Property: CLint scaled at 1 µM

Which measured CLint scaled at 1 µM value corresponds to C[C@H](Nc1ncnc(N)c1C#N)c1cc2ncc(Cl)n2nc1-c1ccccc1 ?
50.4 mL/min/kg
